Source of measurements: patent EP0463514B1

- Tested on: delayed type hypersensitivity (DTH) reaction
- test-details: Delayed type hypersensitivity (DTH) reaction in the mouse, OXA sensitization and ear challenge, ear thickness
- Format: in vivo, Balb/c mice
- condition-notes: increase in ear thickness 48 hours after OXA challenge; oral feeding from sensitization to Day 6; 100 = doubled ear thickness
- Experimental: The property of the compounds of the invention to stimulate immune responses are illustrated by their efficacy in a model in the mouse of the delayed type hypersensitivity (DTH) reaction. […] The mice were sensitized, Day 0, by epicutaneous application of 150 ul absolute ethanol-acetone (3:1) solution containing 3% OXA on the shaved thorax and abdomen. […] Ear thickness was measured prior to and 24 or 48 hours after challenge using an Oditest spring calliper. […]
Marks after values point to notes of the source that are not given here.

# molecule, % Increase, 48h
rows = [
    ("CCCCCCCC(=O)N[C@@H](CSSC[C@H](NC(=O)CCCCCCC)C(=O)OCC)C(=O)OCC [Example 11]", "0%"),
    ("CCCCCC(=O)N[C@@H](CSSC[C@H](NC(=O)CCCCC)C(=O)OC)C(=O)OC [Example 9]", "45*** %"),
    ("CCCCCCCC(=O)N[C@@H](CSSC[C@H](NC(=O)CCCCCCC)C(=O)OC)C(=O)OC [Example 10]", "20* %"),
    ("CC(=O)N[C@@H](CSSC[C@H](NC(=O)C(C)(C)C)C(=O)O)C(=O)O [Example 20]", "17* %"),
    ("CC(C)C(=O)N[C@@H](CSSC[C@H](NC(=O)C(C)C)C(=O)O)C(=O)O [Example 16]", "62*** %"),
    ("CC(C)(C)C(=O)N[C@@H](CSSC[C@H](NC(=O)C(C)(C)C)C(=O)O)C(=O)O [Example 21]", "27* %"),
    ("COC(=O)[C@H](CSSC[C@H](NC(=O)C(C)C)C(=O)OC)NC(=O)C(C)C [Example 14]", "27*** %"),
]
